meta.source: PubChem BioAssay AID493105

Provide the recorded inhibition for the entries that follow.
System: rhLYPLA2
procedure_details: LYPLA1 and LYPLA2 inhibitors, biochemical, gel-based ABPP, fluorescence, recombinant and endogenous enzyme (AID 493105)
setup_conditions: fluorescent probe labeling, membrane fraction, at 20 µM, hits give high values
Answer with a number only, understood to be in %.

Fill in the blank: the reported inhibition of `COc1ccc(C(=O)NC(=S)Nc2ccc(N3CCN(C(C)=O)CC3)cc2)cc1[N+](=O)[O-]` is ____. 15

And what about the compound `CC(=O)N1CCN(c2ccc(NC(=S)NC(=O)c3ccc(C)c([N+](=O)[O-])c3)cc2)CC1` ? 5

And what about the compound CC1CC(C)CN(S(=O)(=O)c2ccc3c(c2)CC(C)N3C(=O)C2CCC2)C1 (stereo not given) ? 0

And what about the compound `COc1ccc(-n2nc(C(=O)NCC(=O)N3CCN(Cc4ccccc4)CC3)c3ccccc3c2=O)c(OC)c1` ? 30

And what about the compound CC1CCc2c(sc(NC(=O)CN3CCN(C(=O)c4ccco4)CC3)c2C#N)C1 (stereo not given) ? 0

And what about the compound `O=C(c1ccc(S(=O)(=O)N2CCCCC2)cc1)N1CCN(CCN2C(=O)c3cccc4cccc(c34)C2=O)CC1` ? 20

And what about the compound `N#Cc1c(NC(=O)CSc2nc(N)cc(=O)[nH]2)sc2c1CCCC2` ? 3

And what about the compound `O=C1N=C(N2CCN(Cc3ccccc3)CC2)S/C1=C/c1cccs1` ? 2

And what about the compound `CCN(CC)S(=O)(=O)c1cccc(-c2nnc(SCCOc3ccccc3)o2)c1` ? 19

And what about the compound `CCOc1ccc(NC(=S)NC(=O)c2c(Br)cnn2C)c([N+](=O)[O-])c1` ? 5

###

Test system: rhLYPLA1
procedure_details: LYPLA1 and LYPLA2 inhibitors, biochemical, gel-based ABPP, fluorescence, recombinant and endogenous enzyme (AID 493105)
setup_conditions: fluorescent probe labeling, soluble fraction, at 20 µM
Active and inactive are the calls of the source. The rule behind the calls is not given here.
Respond only with the outcome that fits, drawn from YES for active, NO for inactive

For `Cc1ccc(C)c(C(=O)CCC(=O)N2CCN(c3cccc(C(F)(F)F)c3)CC2)c1` , what call appears in the results of this test? YES

And what about the compound `CC(=O)N1CCC2(CC1)C/C(=N\NC(=S)Nc1ccc(C)cc1)c1cc(O)ccc1O2` ? NO

And what about the compound COc1ccc(N2CCN(C(=O)C3CCC(Cn4c(=S)[nH]c5ccccc5c4=O)CC3)CC2)cc1 (stereo not given) ? NO

And what about the compound `COc1ccc(C(=O)NC(=S)Nc2ccc(N3CCOCC3)cc2)cc1Cl` ? NO

And what about the compound `Clc1cccc(N2CCN(CCNc3nc4ccccc4n4cnnc34)CC2)c1` ? NO

And what about the compound CC1CC(C)CN(S(=O)(=O)c2ccc3c(c2)CC(C)N3C(=O)C2CCC2)C1 (stereo not given) ? NO

And what about the compound `N#Cc1ccccc1OCCCN1CCC(Cc2ccccc2)CC1` ? NO

And what about the compound `O=C(COc1ccc(Cl)cc1)N1CCN(c2ccc([N+](=O)[O-])c(N3CCCCC3)c2)CC1` ? YES

And what about the compound `N#Cc1c(NC(=O)CSc2nc(N)cc(=O)[nH]2)sc2c1CCCC2` ? NO

And what about the compound `COc1cccc(N=C2NC(=O)/C(=C/c3cc([N+](=O)[O-])ccc3O)S2)c1` ? NO
